- Tested on: GRα and GRβ
- Test Description: GRα and GRβ expression levels in Raji cells transfected with oligonucleotide (RT-PCR and PCR)
- Type: cell-based, human
- Condition Parameters: oligonucleotide 300 nM
- Description: Raji cells (manufactured by Japan Health Science Foundation) derived from human Burkitt's lymphoma were used in experiments. […] The expression level of glyceraldehyde-3-phosphate dehydrogenase (GAPDH) was determined as an endogenous control. […] After the PCR was performed, DNA was separated by […] electrophoresis on a 2% agarose gel containing ethidium bromide, and the intensity of bands was quantified using an image analyzer GEL PRINT 2000i/VGA (manufactured by Genomic Solutions).
GRα/GAPDH values by entry
Number, no unit, nothing else.

-- ask GRα/GAPDH for Oligonucleotide 2: an oligonucleotide having a base sequence represented by SEQ ID NO: 2 (5′-AAAAGGGCACAGCTTCTTTTCCCATTTAATGAAA-3′) (listed as DNA, chemistry not given here) ?
-- reply 1.054

-- ask What value of GRα/GAPDH has been recorded for this entry: Oligonucleotide 4: an oligonucleotide having a base sequence represented by SEQ ID NO: 4 (5′-TTTGTCCCCATTATATAGCATTT-3′) (listed as DNA, chemistry not given here)
-- reply 1.057

-- ask # input substance: Oligonucleotide 5: an oligonucleotide having a base sequence represented by SEQ ID NO: 5 (5′-CAGATTTTTTTATTATGATGT-3′) (listed as DNA, chemistry not given here) ; wanted: its GRα/GAPDH
-- reply 1.041

-- ask Give its GRα/GAPDH value. Item: Oligonucleotide 1: an oligonucleotide having a base sequence represented by SEQ ID NO: 1 (5′-CTTTCTGGTTTTAACCACATAACATTCTATA-3′) (listed as DNA, chemistry not given here)
-- reply 1.082

Now examine the next entry.
-- ask For the substance Oligonucleotide 3: an oligonucleotide having a base sequence represented by SEQ ID NO: 3 (5′-TAAGATGACTTTCTTTTCCCCCACGTATCCT-3′) (listed as DNA, chemistry not given here) , what GRα/GAPDH is on record?
-- reply 1.015
